# Test system: NCI-H226 lung
# measurementDescription: NCI tumour cell line growth inhibition, 48 h
readoutLabel: TGI (µM)
Please reply with the bare figure in µM and do not write the unit itself.

Here is how some compounds turned out for TGI.
cpdSmiles	unitsOfMeasure	TGI
CCNC(=O)NNc1ncnc2c1c(-c1ccc(Cl)cc1)cn2-c1ccc(C)cc1	µM	37.9
c1ccc2cc(Cn3cc[n+](Cc4ccc5ccccc5c4)c3)ccc2c1	µM	14.3
O=C1Nc2ccccc2/C1=C\c1cccc(/C=C2/C(=O)Nc3ccccc32)n1	µM	5.13

# evaluate next
[in] TGI for C=CCOC(=O)c1c(C)n([O-])c2cc(Cl)c(Cl)cc2[n+]1=O ?
[out] 38.9
